target of assay: D1-D5
method summary: Affinity to brain targets (panel)
Listing: Ki of selected compounds

COc1ccc(N(C)c2ncnc3occ(C)c23)cc1 [HD-800, reference compound]: > 10 µM
Cc1nc(N(C)c2ccc(OCCF)cc2)c2c(C)coc2n1: > 10 µM

// switching to the query compound
Request the reported Ki associated with "Cc1nc(N(C)c2ccc(OCCF)cc2)c2ccccc2n1"
> 10 µM

====

target of assay: Sigma2 (Homo sapiens, UniProt Q5BJF2)
Sequence (Q5BJF2 whole entry): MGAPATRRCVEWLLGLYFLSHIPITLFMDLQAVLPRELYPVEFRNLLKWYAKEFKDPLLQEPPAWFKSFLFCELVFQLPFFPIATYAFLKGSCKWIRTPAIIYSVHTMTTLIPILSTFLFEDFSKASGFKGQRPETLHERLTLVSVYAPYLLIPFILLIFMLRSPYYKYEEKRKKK
quantity: Ki (nM)
Output spec: scalar in nM, unitless text.

Request the reported Ki associated with Cc1nc(N(C)c2ccc(OCCF)cc2)c2ccccc2n1 [FEMPC-6827]
2460

====

target of assay: D4 (Homo sapiens)
Sequence (P21917 1-419): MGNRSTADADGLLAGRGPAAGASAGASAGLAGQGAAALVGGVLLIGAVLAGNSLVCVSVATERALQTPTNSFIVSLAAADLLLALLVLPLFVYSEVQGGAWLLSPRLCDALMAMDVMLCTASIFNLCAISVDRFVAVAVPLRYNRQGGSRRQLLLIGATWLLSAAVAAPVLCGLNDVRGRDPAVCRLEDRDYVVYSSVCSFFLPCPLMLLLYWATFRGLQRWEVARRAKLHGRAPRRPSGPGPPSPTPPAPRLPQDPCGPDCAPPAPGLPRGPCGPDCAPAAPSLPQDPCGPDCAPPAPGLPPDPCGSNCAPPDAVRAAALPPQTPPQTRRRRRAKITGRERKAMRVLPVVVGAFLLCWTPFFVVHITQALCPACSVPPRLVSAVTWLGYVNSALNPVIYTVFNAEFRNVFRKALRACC
quantity: Ki

Lab note: need Ki for "COc1ccc(N(C)c2nc(C)nc3ccccc23)cc1" on D4 (Homo sapiens), anyone have it?
> 10 µM

====

Listing: Ki of selected compounds
target of assay: M
method summary: Affinity to brain targets (panel)
measurement parameters: M: muscarinic

See these solved cases before continuing.
COc1ccc(N(C)c2nc(C)nc3ccccc23)cc1: > 10 µM
Cc1nc(N(C)c2ccc(OCCF)cc2)c2c(C)coc2n1: > 10 µM
COc1ccc(N(C)c2ncnc3occ(C)c23)cc1 [HD-800, reference compound]: > 10 µM

// switching to the query compound
Request the reported Ki associated with "Cc1nc(N(C)c2ccc(OCCF)cc2)c2ccccc2n1"
> 10 µM

====

target of assay: H1 (Homo sapiens)
Sequence (P35367 whole entry): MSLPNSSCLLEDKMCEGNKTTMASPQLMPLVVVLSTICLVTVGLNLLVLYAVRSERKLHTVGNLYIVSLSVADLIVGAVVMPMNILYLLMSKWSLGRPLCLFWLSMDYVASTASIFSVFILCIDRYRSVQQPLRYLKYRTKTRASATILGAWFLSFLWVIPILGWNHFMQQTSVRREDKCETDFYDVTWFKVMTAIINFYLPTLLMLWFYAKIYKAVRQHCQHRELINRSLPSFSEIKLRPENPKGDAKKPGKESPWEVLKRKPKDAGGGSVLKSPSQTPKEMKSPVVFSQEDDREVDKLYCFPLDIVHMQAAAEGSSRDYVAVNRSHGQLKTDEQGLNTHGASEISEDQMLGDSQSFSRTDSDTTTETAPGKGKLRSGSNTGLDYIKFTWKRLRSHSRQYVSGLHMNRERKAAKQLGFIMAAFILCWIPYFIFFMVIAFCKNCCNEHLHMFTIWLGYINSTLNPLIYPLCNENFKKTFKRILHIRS
quantity: Ki (nM)
Output spec: scalar in nM, unitless text.

Lab note: need Ki for Cc1nc(N(C)c2ccc(OCCF)cc2)c2ccccc2n1 [FEMPC-6827] on H1 (Homo sapiens), anyone have it?
305

====

target of assay: 5-HT1D (Homo sapiens, UniProt P28221)
Sequence (P28221 whole entry, species assumed): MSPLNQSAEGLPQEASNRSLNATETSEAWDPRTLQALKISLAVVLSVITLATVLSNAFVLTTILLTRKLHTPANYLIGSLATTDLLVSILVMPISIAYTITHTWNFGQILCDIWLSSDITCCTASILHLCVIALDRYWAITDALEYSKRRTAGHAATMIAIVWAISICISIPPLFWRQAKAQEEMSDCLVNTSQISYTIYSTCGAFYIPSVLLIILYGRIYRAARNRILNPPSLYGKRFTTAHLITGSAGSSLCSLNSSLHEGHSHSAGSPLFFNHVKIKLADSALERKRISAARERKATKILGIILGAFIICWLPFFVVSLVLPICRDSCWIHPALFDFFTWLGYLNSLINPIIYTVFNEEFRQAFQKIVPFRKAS
pKi: −log10 of the molar value.
quantity: pKi

Request the reported pKi associated with "COc1ccc(N(C)c2nc(C)nc3ccccc23)cc1"
< 5.00

====

target of assay: 5-HT2A-2C
method summary: Affinity to brain targets (panel)
quantity: Ki

Cc1nc(N(C)c2ccc(OCCF)cc2)c2ccccc2n1: > 10 µM

Request the reported Ki associated with COc1ccc(N(C)c2ncnc3occ(C)c23)cc1 [HD-800, reference compound]
> 10 µM

Entry to check: "Cc1nc(N(C)c2ccc(OCCF)cc2)c2c(C)coc2n1"
> 10 µM

====

Reported Ki for target or system Sigma1 (Homo sapiens), by entry.
Output spec: scalar in µM, unitless text.

Cc1nc(N(C)c2ccc(OCCF)cc2)c2ccccc2n1 [FEMPC-6827]: 0.051
Cc1nc(N(C)c2ccc(OCCF)cc2)c2c(C)coc2n1 [FE-HD-800]: 0.832

// switching to the query compound
Request the reported Ki associated with COc1ccc(N(C)c2nc(C)nc3ccccc23)cc1 [MPC-6827]
0.426
